# assayedSystem: T1, 4H40-bH
# T1 chain: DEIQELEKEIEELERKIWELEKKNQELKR
# methodDescription: two-hybrid library CCNG1;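 further: natural log of median RNA to DNA barcode read ratio; higher means stronger binding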
measure: interaction score
When you answer, write just the number.

## Input Quick one: interaction score of DKIQELEKENEELERKIWELKKKNQELER [4H2223-bH] ?
## Output -1.6

## Input Quick one: interaction score of DEIQELEKKIEELERKNWELKKKNQELER [4H319-bH] ?
## Output -2.01

## Input Quick one: interaction score of DKIQELEKEIEELKRENWELEKKIQELKR [4H2134-bH] ?
## Output -0.995

## Input Quick one: interaction score of DKIQELKKKIEELERENWELEKKNQELER [4H2839-bH] ?
## Output 0.0596

## Input Quick one: interaction score of DKIQELEKKNEELERKIWELKKEIQELER [4H2473-bH] ?
## Output -0.286
